target system: ITK (Mus musculus)
Construct: mice were sacrificed and splenocytes were isolated and used to prepare protein lysates; from tissue; host or cells: mouse splenocytes (spleen) after oral dosing
Sequence (Q03526 whole entry): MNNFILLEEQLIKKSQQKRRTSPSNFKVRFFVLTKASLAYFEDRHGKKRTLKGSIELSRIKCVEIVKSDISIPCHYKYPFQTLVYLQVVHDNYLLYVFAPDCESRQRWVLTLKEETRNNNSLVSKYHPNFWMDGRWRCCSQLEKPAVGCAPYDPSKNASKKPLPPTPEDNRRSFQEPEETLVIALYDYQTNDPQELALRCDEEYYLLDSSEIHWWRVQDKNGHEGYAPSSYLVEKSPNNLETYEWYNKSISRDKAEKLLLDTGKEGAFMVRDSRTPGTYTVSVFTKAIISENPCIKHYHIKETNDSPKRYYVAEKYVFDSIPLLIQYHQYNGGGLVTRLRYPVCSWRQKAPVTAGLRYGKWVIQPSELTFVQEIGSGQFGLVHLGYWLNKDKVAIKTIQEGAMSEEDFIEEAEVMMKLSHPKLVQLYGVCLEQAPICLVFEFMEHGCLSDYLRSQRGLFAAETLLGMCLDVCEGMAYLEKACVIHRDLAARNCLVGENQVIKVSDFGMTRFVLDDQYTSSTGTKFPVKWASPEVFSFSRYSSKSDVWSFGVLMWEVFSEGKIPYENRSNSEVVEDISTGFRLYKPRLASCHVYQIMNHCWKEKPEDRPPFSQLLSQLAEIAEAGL
test method notes: Mouse PD assay for ITK degradation (Western blot, splenocytes after oral administration)
Type: in vivo
assay setup: percent ITK remaining in mouse splenocytes relative to vehicle, 90 mpk PO, 6 h
Counter-ions that a name gives are not always drawn.
Quick reference: ITK (%) 90 mpk PO, 6 h of the listed items.

Examples with answers:
INSERT INTO measurements (compound, experimental_result) VALUES
  ('C[C@@H](C(=O)N(C)c1ccc2cc(-c3n[nH]c4c3C[C@@H]3C(F)(F)[C@]3(C)C4)[nH]c2c1)N1CCN(C[C@H]2CCN(c3ccc4c(c3)C(=O)N(C3CCC(=O)NC3=O)C4=O)C2)CC1 (stereo partly drawn)', '49.3%'),
  ('C[C@@]12Cc3[nH]nc(-c4cc5ccc(N6CCC7(CCN(Cc8ccc9c(c8)C(=O)N(C8CCC(=O)NC8=O)C9=O)CC7)C6=O)cc5[nH]4)c3C[C@@H]1C2(F)F (stereo partly drawn) [Compound 15, hydrochloride]', '18.3%');

Could you now look at the following compound, please?
QUERY: Recorded ITK (%) 90 mpk PO, 6 h of CN(C(=O)CCC1CCN(c2ccc3c(c2)C(=O)N(C2CCC(=O)NC2=O)C3=O)C1)c1ccc2cc(-c3n[nH]c4c3CCC(C)(C)C4)[nH]c2c1 (stereo not drawn) , please.
RESULT: 153%

The reported measurements were obtained from patent US20240279202A1.
